Let's look at some molecules and their measured parasite growth remaining, % of DMSO control (lower = more inhibition).
assay: qHTS profiling of the MIPE4 collection as inhibitors of Plasmodium falciparum (DD2) proliferation (AID 743345); settings: P. falciparum Dd2 in erythrocytes, SYBR Green DNA, 72 h; at 28.5 µM (top of the series) unless noted
VALUE TYPE: parasite growth remaining, % of DMSO control (lower = more inhibition) (%)

{"MOLECULE": "CC(=O)O[C@]1(C(C)=O)CC[C@H]2[C@@H]3C=C(Cl)C4=CC(=O)[C@@H]5C[C@H]5[C@]4(C)[C@@H]3CC[C@@]21C", "RESULT": 22.5}
{"MOLECULE": "O=C(O)C1=NC(C(=O)O)CC(C=CN2c3cc(O)c(OC4OC(CO)C(O)C(O)C4O)cc3CC2C(=O)O)=C1 (centres undefined)", "RESULT": 104}
{"MOLECULE": "Cc1cc2c(cc1C1(c3ccc(C(=O)O)cn3)CC1)C(C)(C)CCC2(C)C", "RESULT": 95.5}
{"MOLECULE": "O=C1NC(=O)C(c2cnc3ccccn23)=C1c1cn2c3c(cccc13)CN(C(=O)N1CCOCC1)CC2", "RESULT": 88}

###

assay: Identifying Small Molecule Inhibitors of Pancreatic Cancer Stem Cells (Panc1, Spheroid) (AID 1259359); conditions: Panc1 spheroid cancer stem cell viability; series mostly up to 46.1 µM;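 further: potency means the concentration at half of the fitted maximal effect; compound exposure lasted 48 h before reading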
Inconclusive results are not listed. The source made the active and inactive calls. Calls follow the shape of the dose curve; as a rule, active = well fitted cell-killing curve with a large enough effect; inconclusive = small, poorly fitted or top-dose-only effect, or effect the other way, or another doubt; inactive = no such curve, though single readings can be large or run the other way.
Let's look at some compounds and their measured Potency.

{"COMPOUND STRING": "CN(C)CCN(C)C(=O)c1ccc(NC(=O)Nc2ccc(-c3nc(N4CCOCC4)c4ccn(CC(F)(F)F)c4n3)cc2)cc1", "Potency": "6.62 µM (active)"}
{"COMPOUND STRING": "CC(C)(C)c1[nH]cnc1C=c1[nH]c(=O)c(=Cc2ccccc2)[nH]c1=O", "Potency": "0.0019 µM (active)"}
{"COMPOUND STRING": "CNC(=O)c1cc(Oc2ccc(NC(=O)Nc3ccc(Cl)c(C(F)(F)F)c3)c(F)c2)ccn1", "Potency": "20.9 µM (active)"}

###

tested on: NIH3T3; assay: Cytotoxic Profiling of Annotated Libraries Using Quantitative High-Throughput Screening (AID 1296008); details: Five cell lines viability, CellTiter-Glo ATP luminescence, 48-72 h; stronger effect = lower value; further: on the % scale 0 is the no-effect control and ±100 the full control effect; nearly all actives have a fitted effect of over 60% in size
Results filed as inconclusive are left out.

{"COMPOUND": "OC[C@H]1O[C@@H](O[C@H]2[C@@H](O)[C@@](O)(CO)O[C@@H]2CO)[C@H](O)[C@@H](O)[C@@H]1O", "UNIT TEXT": "%", "max response": 2.52}
{"COMPOUND": "CC(C)(F)C[C@H](N[C@@H](c1ccc(-c2ccc(S(C)(=O)=O)cc2)cc1)C(F)(F)F)C(=O)NC1(C#N)CC1", "UNIT TEXT": "%", "max response": -18}
{"COMPOUND": "Cc1ccc(S(=O)(=O)Nc2nc3ccccc3nc2Nc2ccc3nsnc3c2)cc1", "UNIT TEXT": "%", "max response": -28.1}
{"COMPOUND": "Cc1nc2c([nH]1)CCN(C(=O)c1ccc(NC(=O)c3ccccc3-c3ccccc3)cc1)c1ccccc1-2", "UNIT TEXT": "%", "max response": 4.2}
{"COMPOUND": "O=C(O)C1=CO[C@@H](O[C@@H]2O[C@H](CO)[C@H](O)[C@H](O)[C@H]2O)[C@@H]2C(CO)=CC[C@H]12", "UNIT TEXT": "%", "max response": -17.7}
{"COMPOUND": "CN(C)CCCNC(=O)c1ccc(-c2cc(O)c3ncccc3c2)cc1", "UNIT TEXT": "%", "max response": -2.36}
{"COMPOUND": "CNC(=O)[C@H](Cc1ccccc1)NC(=O)[C@H](CC(C)C)[C@H](CSc1cccs1)C(=O)NO", "UNIT TEXT": "%", "max response": 0.205}
{"COMPOUND": "CC1CNc2c(cccc2S(=O)(=O)N[C@@H](CCCN=C(N)N)C(=O)N2CC[C@@H](C)C[C@@H]2C(=O)O)C1 (stereo partly drawn)", "UNIT TEXT": "%", "max response": -2.95}
